These measurements were taken from the supplement of paper PMC10567573.

B1: FEM1B (parent)
chain: TLAALLLNRSESDIRYLLGYVSQQ

Variants of: B1
Assay: protein stability index of a GFP-peptide fusion (GPS, HEK-293T) (PSI 1-6); higher = more stable;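 further: lentivirally expressed fusions sorted by FACS into six bins by GFP to DsRed ratio, PSI derived from sequencing read proportions per bin multiplied by bin number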
Conditions: c terminus: a fixed tail appended
Catalogue of protein stability index values

{"change": "L5A", "protein stability index": 2.03}
{"change": "R9T", "protein stability index": 2.94}
{"change": "R9C", "protein stability index": 2.13}
{"change": "E11N", "protein stability index": 3.2}
{"change": "I14A", "protein stability index": 2.58}
{"change": "G19D", "protein stability index": 2.62}
{"change": "L18S", "protein stability index": 3.62}
